# Tested on: SF-295 (human glioblastoma)
# TEST PROTOCOL: In vitro antiproliferative MTT assay, SF-295
# Format: cell-based
# EXPERIMENTAL SETUP: Homo sapiens, SF-295; Table 2; MTT; read-out: IC50 SF295
pIC50: −log10 of the molar value.
EXPERIMENTAL READOUT: pIC50

[a] COc1cc(C(=O)N/N=C/c2ccc(O)cc2)cc(OC)c1OC [Compound 5d]
[b] COc1cc(C(=O)N/N=C/c2ccc(C)cc2)cc(OC)c1OC [Compound 5o]
Incoming: Would you kindly point out which of a and b has the smaller pIC50 figure? Pick one; state its label.
Outgoing: a

[a] COc1cc(C(=O)N/N=C/c2cccc(O)c2)cc(OC)c1OC [Compound 5c]
[b] COc1cc(C(=O)N/N=C/c2ccc(Cl)cc2)cc(OC)c1OC [Compound 5q]
Incoming: // which entry has the larger pIC50 value, a or b ? Pick one; state its label.
Outgoing: b
(b: 7.14, a: 4.88)

[I] COc1cc(C(=O)N/N=C/c2ccc(F)cc2)cc(OC)c1OC [Compound 5p]
[II] COc1ccc(/C=N/NC(=O)c2cc(OC)c(OC)c(OC)c2)cc1OC [Compound 5g]
Incoming: Would you kindly point out which of I and II has the smaller pIC50 figure? Pick one; state its label.
Outgoing: II
